method_notes: yeast display, Sf9 membrane polyspecificity reagent, FACS + sequencing; frameworks hold sequencing errors
endpoint_name: polyreactivity (PSR sort gate)

- QVQLVESGGGLVHAGGSLRLSCAASGSTLRGYVMGWYRQAPGKERELVAAITQRAGSTYYADSVKGRFTISRDNAKNPVYLQMNSLKAEDTAVYYCNVDRHYAVESGYWGQGTQVTVSS: high polyreactivity
- QVQLVESGGGLVQAGGSLRLSCAASGRILAANAMGWYRQAPGKERELVAAISWSGGRTYYADSVKGRFTISRDNAKNTVYLQMNSLKPEDTAVYYCIKLALAGYDYWGQGTQVTVSS: high polyreactivity
- QVQLVESGGGLVQAGGSLRLSCASSGHIFIGNAMGWYRQAPGKERELVAAISRGGGRTYYADSVKGRFTISRDNAKNTVFLQMNILKPEDTAVYYCATVGQGPTKTPAGRYDYWGQGTQVTVSS: high polyreactivity
- QVQLVESGGGLVQAGGSLRLSCAASGSTFYRNVMGWYRQAPGKERELVAAISASGGSTYYADSVKGRFTISRDNAKNTVYLQMNSLKPEVTAVYYCAVDNRQYRYLYYYWGQGSQVTVSS: high polyreactivity
- QVQIVESGGGLVQAGGSLRLSCAASGRSYAINAMGSYRQAPGKERELDASITTRDSSTYYADSVKGRFTISRDNAKNTVYLHMNSLKPEDTAVYYCAKVKLVTYLYRLFVYGSYYWGQGTLVTVSS: low polyreactivity

# polyreactivity (PSR sort gate) (sequence: QVQLVESGGGLVQAGGSLRLSCAASGRIFGGYTMGWYRQAPGNERELVAAINSGGSTYYADSVKGRFTISRDNAKITVYLQMNSLKPEDTAVYYCAKVRSYFGKYGYGYWGQGTQVTVSS ) is high polyreactivity

Query QVQLVESGGGLVQAGGSLRLSCAASGFIFSVYAMGWYRQAPGTEREFVAAIRWSGGSTYYADSVKGRFTISRDNAKNTVYLQMNSLKPEDTAVYYCAARARDHYGYWGQGTQVTVSS yields polyreactivity (PSR sort gate) of high polyreactivity

In plain terms, QVQLVESGGGLVQAGGSLRLSCAASGSIFTNYAMGWYRQAPGKERELVATITYYADSVKGRFTISRDNAKNTVYLQMNSLKPVDTAVYYCAAVRSGPGYDYWGQGTQVTVSS has a documented polyreactivity (PSR sort gate) of low polyreactivity

The origin of these recorded values is the nanobody polyreactivity screen of Harvey et al. (2022).
